Biological target: hFASN enzyme (full length) (Homo sapiens, UniProt P49327)
Construct: 10 μL hFASN enzyme (full length, 300 ng, purified in house); made in house
Sequence (P49327 whole entry): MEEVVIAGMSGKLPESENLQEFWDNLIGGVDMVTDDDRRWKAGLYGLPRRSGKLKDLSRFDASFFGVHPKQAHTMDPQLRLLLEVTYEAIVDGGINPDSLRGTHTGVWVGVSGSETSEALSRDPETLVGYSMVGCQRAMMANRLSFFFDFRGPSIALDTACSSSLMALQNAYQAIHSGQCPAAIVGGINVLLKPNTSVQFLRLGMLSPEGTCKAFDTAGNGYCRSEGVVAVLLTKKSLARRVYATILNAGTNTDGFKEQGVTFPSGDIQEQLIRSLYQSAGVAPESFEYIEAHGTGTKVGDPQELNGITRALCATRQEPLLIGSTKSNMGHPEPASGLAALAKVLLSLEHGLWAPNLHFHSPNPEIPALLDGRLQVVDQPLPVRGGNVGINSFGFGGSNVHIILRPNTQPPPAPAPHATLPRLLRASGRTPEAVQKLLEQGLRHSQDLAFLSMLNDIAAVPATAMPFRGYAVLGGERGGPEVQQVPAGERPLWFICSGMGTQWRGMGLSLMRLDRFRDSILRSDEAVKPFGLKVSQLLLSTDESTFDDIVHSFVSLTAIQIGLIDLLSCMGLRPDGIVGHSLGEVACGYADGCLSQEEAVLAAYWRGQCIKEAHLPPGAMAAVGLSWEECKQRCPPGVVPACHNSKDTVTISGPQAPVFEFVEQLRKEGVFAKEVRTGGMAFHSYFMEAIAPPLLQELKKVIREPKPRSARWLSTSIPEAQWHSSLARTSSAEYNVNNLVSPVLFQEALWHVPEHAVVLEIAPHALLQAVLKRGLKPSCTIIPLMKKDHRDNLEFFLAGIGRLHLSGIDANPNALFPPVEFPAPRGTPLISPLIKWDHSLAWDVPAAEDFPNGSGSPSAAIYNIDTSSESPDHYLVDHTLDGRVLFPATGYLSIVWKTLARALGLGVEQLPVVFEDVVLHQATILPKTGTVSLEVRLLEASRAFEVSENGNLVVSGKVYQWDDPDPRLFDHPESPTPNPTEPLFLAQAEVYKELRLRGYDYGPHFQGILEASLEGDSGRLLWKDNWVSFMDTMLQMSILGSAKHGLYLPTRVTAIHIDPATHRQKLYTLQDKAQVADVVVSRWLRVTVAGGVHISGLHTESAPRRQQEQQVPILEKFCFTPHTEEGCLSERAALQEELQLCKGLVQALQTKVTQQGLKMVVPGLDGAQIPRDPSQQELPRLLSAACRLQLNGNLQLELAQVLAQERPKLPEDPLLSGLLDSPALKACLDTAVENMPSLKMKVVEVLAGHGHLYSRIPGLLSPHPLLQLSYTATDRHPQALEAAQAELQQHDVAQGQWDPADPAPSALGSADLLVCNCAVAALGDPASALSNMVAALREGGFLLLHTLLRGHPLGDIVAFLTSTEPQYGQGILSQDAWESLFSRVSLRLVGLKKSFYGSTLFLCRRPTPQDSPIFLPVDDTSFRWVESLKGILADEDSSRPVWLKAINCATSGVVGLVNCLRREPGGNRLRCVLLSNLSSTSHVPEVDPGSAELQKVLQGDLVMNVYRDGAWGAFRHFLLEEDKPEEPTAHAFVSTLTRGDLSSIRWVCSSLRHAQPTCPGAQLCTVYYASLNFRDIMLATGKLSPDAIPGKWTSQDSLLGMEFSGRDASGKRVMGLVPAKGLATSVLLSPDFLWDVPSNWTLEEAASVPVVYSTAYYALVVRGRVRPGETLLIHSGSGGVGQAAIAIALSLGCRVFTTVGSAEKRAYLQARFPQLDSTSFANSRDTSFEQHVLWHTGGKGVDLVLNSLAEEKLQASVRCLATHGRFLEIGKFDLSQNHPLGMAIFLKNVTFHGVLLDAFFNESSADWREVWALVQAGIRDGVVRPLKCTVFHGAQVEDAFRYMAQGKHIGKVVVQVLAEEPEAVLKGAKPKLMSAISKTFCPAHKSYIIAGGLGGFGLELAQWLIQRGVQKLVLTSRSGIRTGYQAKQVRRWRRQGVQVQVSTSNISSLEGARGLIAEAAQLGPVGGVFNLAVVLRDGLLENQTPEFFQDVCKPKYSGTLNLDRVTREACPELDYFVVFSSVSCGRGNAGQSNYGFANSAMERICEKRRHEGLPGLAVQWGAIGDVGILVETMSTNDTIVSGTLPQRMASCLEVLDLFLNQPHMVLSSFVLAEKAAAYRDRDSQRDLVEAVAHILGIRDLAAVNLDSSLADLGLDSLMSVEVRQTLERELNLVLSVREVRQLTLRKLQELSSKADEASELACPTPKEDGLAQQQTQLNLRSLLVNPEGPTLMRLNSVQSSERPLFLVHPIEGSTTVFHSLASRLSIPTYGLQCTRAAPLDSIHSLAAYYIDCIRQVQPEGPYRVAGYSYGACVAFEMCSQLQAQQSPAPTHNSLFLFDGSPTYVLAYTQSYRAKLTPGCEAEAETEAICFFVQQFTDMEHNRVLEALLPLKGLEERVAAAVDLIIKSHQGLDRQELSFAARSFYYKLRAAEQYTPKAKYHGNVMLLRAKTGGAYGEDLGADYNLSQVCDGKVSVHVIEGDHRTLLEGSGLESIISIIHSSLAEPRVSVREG
Experiment: Fatty Acid Synthase (FASN) inhibition scintillation proximity assay
Type: biochemical
Settings: read-out: Human FASN pIC50 (converted)
Listing of recorded IC50 by entry.

Solved entries:
N#Cc1ccc2ccc(-c3ccc(C4=NC5(CC5)C(=O)N4CC4CN(C(=O)C5CC5)C4)cc3)cc2n1 [compound 611] ... ~10 µM
COC(=O)N1CC(CN2C(=O)C3(CCOCC3)N=C2c2ccc(-c3ccc4occc4c3)cc2)C1 [compound 928] ... > 10 µM
O=C(C1CC1)N1CC(CN2C(=O)C3(CC3)N=C2c2ccc(-c3cnc4ncccc4c3)cc2)C1 [compound 799] ... > 10 µM
Cc1cc(-c2ccc(-c3ccnn3CC3CC3)cc2)ccc1C1=NC2(CC2)C(=O)N1CC1CN(C(=O)C2(C)CC2)C1 [compound 786] ... > 10 µM
Cn1ncc2cc(-c3ccc(C4=NC5(CCN(C(=O)C(F)(F)F)CC5)C(=O)N4CC4CN(C(=O)C5CC5)C4)cc3)ccc21 [compound 964] ... ~11 µM

Provide IC50 value for the following molecule: O=C(C1CC1)N1CC(CN2C(=O)C3(CCOC3)N=C2c2ccc(-c3ccc4occc4c3)cc2)C1 (stereo not shown) [compound 718]
~2.4 µM

Provide IC50 value for the following molecule: Cn1ncc2cc(-c3ccc(C4=NC5(CCOCC5)C(=O)N4CC4CN(C(=O)c5nccs5)C4)cc3)ccc21 [compound 908]
> 10 µM

###

Target: hFASN enzyme (full length) (Homo sapiens, UniProt P49327)
Construct: 10 μL hFASN enzyme (full length, 300 ng, purified in house); made in house
Test: Fatty Acid Synthase (FASN) inhibition scintillation proximity assay
Format: biochemical
Settings: read-out: Human FASN % inhibition @ 10 μM, 10 μM test compound
Class 1: inhibition at 10 µM at least 60%. Class -1: inhibition at 10 µM below 60%.

Cc1cc2cc(-c3ccc(C4=NC5(CC5)C(=O)N4C[C@@H]4CCN(C(=O)C5CC5)C4)cc3C)ccc2o1 ... 1

Could you verify whether the entry N#Cc1ccc(-c2ccc(C3=NC4(CCCC4)C(=O)N3C[C@@H]3CCN(C(=O)C4CC4)C3)cc2)cc1 shows inhibition at 10 µM of no less than 60%?
1

Could you verify whether the entry Cn1ccc(-c2ccc(-c3ccc(C4=NC5(CC5)C(=O)N4CC4CN(C(=O)C5CC5)C4)c(F)c3)cc2)n1 shows inhibition at 10 µM of no less than 60%?
1

Could you verify whether the entry Cc1cc(-c2ccc3cnccc3c2)ccc1C1=NC2(CCCC2)C(=O)N1C[C@@H]1CCN(C(=O)C2CC2)C1 shows inhibition at 10 µM of no less than 60%?
1

Could you verify whether the entry CC(O)C(=O)N1CC[C@@H](CN2C(=O)C3(CCOCC3)N=C2c2ccc(-c3ccc4cccnc4c3)cc2)C1 (some centres unmarked) shows inhibition at 10 µM of no less than 60%?
1

Could you verify whether the entry Cn1cc(-c2ccc(-c3ccc(C4=NC5(CCOCC5)C(=O)N4C[C@@H]4CCN(C(=O)c5nccs5)C4)cc3)cc2)cn1 shows inhibition at 10 µM of no less than 60%?
-1

Could you verify whether the entry CC(C)N1CCC2(CC1)N=C(c1ccc(-c3ccc4c(cnn4C)c3)cc1)N(CC1CN(C(=O)C3CC3)C1)C2=O shows inhibition at 10 µM of no less than 60%?
-1

Could you verify whether the entry CS(=O)(=O)N1CCC2(CC1)N=C(c1ccc(-c3ccc4[nH]ncc4c3)cc1)N(CC1CN(C(=O)C3CC3)C1)C2=O shows inhibition at 10 µM of no less than 60%?
1

###

Biological target: hFASN enzyme (full length) (Homo sapiens, UniProt P49327)
Construct: 10 μL hFASN enzyme (full length, 300 ng, purified in house); made in house
Experiment: Fatty Acid Synthase (FASN) inhibition scintillation proximity assay
Type: biochemical
Details: read-out: Human FASN % inhibition @ 10 μM, 10 μM test compound
measurementKind: inhibition at 10 µM (%)
Write down the numeric answer in % and omit the unit.

O=C(C1CC1)N1CC(CN2C(=O)C3(CC3)N=C2c2ccc(-c3ccc4[nH]ccc4c3)c(F)c2)C1 ... 97
O=C(C1CC1)N1CC[C@@H](CN2C(=O)C3(CC3)N=C2c2ccc(-c3cccc4[nH]ncc34)cn2)C1 ... 96
O=C([C@H]1CCCO1)N1CC[C@@H](CN2C(=O)C3(CCCC3)N=C2c2ccc(-c3ccc4occc4c3)cc2)C1 ... 108
Cc1cc(-c2ccc3cc(Cl)cnc3c2)ccc1C1=NC2(CC2)C(=O)N1CC1CN(C(=O)C2(C)CC2)C1 ... 101
O=C(C1CC1)N1CCC[C@@H](CN2C(=O)C3(CC3)N=C2c2ccc(-c3ccc4sccc4c3)cc2)C1 ... 84

Provide inhibition at 10 µM value for the following compound: Cn1ncc2cc(-c3ccc(C4=NC5(CCN(C(=O)C6CC6)CC5)C(=O)N4C[C@@H]4CCN(C(=O)C5CC5)C4)cc3)ccc21
114

###

Biological target: hFASN enzyme (full length) (Homo sapiens, UniProt P49327)
Construct: 10 μL hFASN enzyme (full length, 300 ng, purified in house); made in house
Experiment: Fatty Acid Synthase (FASN) inhibition scintillation proximity assay
Format: biochemical
Settings: read-out: Human FASN pIC50 (converted)
Listing of recorded IC50 by entry.
Write down the numeric answer in µM and omit the unit.

Solved entries:
Cc1cc(-c2cccc(S(=O)(=O)C3CC3)c2)ccc1C1=NC2(CC2)C(=O)N1CC1CN(C(=O)C2CC2)C1 [compound 640] ... 5.37
O=C(C1CC1)N1CC[C@@H](CN2C(=O)C3(CCCC3)N=C2c2ccc(-c3ccnc4ccccc34)cc2)C1 [compound 22] ... 1.07

Moving on to another molecule below.
Provide IC50 value for the following molecule: O=C(C1CC1)N1CC[C@@H](CN2C(=O)C3(CC3)N=C2c2ccc(-c3ccc4c(c3)OCCO4)cc2)C1 [compound 456]
6.92

###

Molecular target: hFASN enzyme (full length) (Homo sapiens)
Construct: 10 μL hFASN enzyme (full length, 300 ng, purified in house); made in house
Assay: Fatty Acid Synthase (FASN) inhibition scintillation proximity assay
Format: biochemical
Settings: read-out: Human FASN pIC50 (converted)
Please respond with condition met when measured IC50 is strictly beneath 300 nM, and with condition not met in all other cases.

Cc1cc(-c2ccc3c(cnn3C)c2)ccc1C1=NC2(CC2)C(=O)N1CC1CN(C(=O)C(C)(C)O)C1 ... condition met
O=C(C1CC1)N1CC(CN2C(=O)C3(CC3)N=C2c2ccc(-c3ccc4ocnc4c3)cc2)C1 ... condition not met
Cc1cc(-c2ccc3sc(C)c(C)c3c2)ccc1C1=NC2(CC2)C(=O)N1C[C@@H]1CCN(C(=O)C2CC2)C1 ... condition met
Cc1cc(-c2ccc3sccc3c2)ccc1C1=NC2(CC2)C(=O)N1C[C@@H]1CCN(C(=O)C2CC2)C1 ... condition met
Nc1cccc(-c2ccc(C3=NC4(CC4)C(=O)N3C[C@@H]3CCN(C(=O)C4CC4)C3)cc2)n1 ... condition met
COC(=O)N1CC2(C1)N=C(c1ccc(-c3ccc4occc4c3)cc1)N(C[C@@H]1CCN(C(=O)C(F)(F)F)C1)C2=O ... condition not met
Cn1cc(-c2ccc(-c3ccc(C4=NC5(CCOC5)C(=O)N4CC4CCN(C(=O)c5nccs5)C4)cc3)cc2)cn1 (stereo not shown) ... condition not met

Now for another entry.
Does the reported IC50 of the following compound sit strictly below 300 nM? Cn1ncc2cc(-c3ccc(C4=NC5(CCOCC5)C(=O)N4C[C@@H]4CCN(C(=O)c5nccs5)C4)cc3)ccc21
condition not met

###

Biological target: hFASN enzyme (full length) (Homo sapiens, UniProt P49327)
Construct: 10 μL hFASN enzyme (full length, 300 ng, purified in house); made in house
Assay: Fatty Acid Synthase (FASN) inhibition scintillation proximity assay
Assay type: biochemical
Conditions: read-out: Human FASN pIC50 (converted)
Listing of recorded IC50 by entry.

O=C1N(C[C@@H]2CCN(S(=O)(=O)N3CCCC3)C2)C(c2ccc(-c3ccc4occc4c3)cc2)=NC12CCCC2 [compound 189] ... > 10 µM
Cn1ncc2cc(-c3ccc(C4=NC5(CCOC5)C(=O)N4C[C@@H]4CCN(C(=O)C(F)(F)F)C4)cc3)ccc21 (stereo partly drawn) [compound 955] ... > 10 µM

Moving on to another compound below.
Provide IC50 value for the following compound: Cc1ccc2c(-c3ccc(C4=NC5(CC5)C(=O)N4CC4CN(C(=O)C5CC5)C4)cc3)cccc2n1 [compound 790]
> 10 µM

###

Target: hFASN enzyme (full length) (Homo sapiens, UniProt P49327)
Construct: 10 μL hFASN enzyme (full length, 300 ng, purified in house); made in house
Test: Fatty Acid Synthase (FASN) inhibition scintillation proximity assay
Type: biochemical
Conditions: read-out: Human FASN pIC50 (converted)
measurementKind: IC50

Solved entries:
Cn1ncc2cc(-c3ccc(C4=NC5(CCOCC5)C(=O)N4CC4CN(S(C)(=O)=O)C4)cc3)ccc21 [compound 902] ... > 10 µM
Cc1cc(C2=NC3(CC3)C(=O)N2CC2CN(C(=O)C3CC3)C2)ccc1-c1ccc2occc2c1 [compound 393] ... ~2.88 µM
COC(=O)N1CC2(C1)N=C(c1ccc(-c3ccc4c(cnn4C)c3)cc1)N(C[C@@H]1CCN(C(=O)c3nccs3)C1)C2=O [compound 923] ... > 10 µM

Provide IC50 value for the following compound: CS(=O)(=O)N1CC(CN2C(=O)C3(CCOC3)N=C2c2ccc(-c3ccc4cccnc4c3)cc2)C1 (stereo not shown) [compound 942]
> 10 µM
